Biological target: 3',5'-cyclic-AMP phosphodiesterase 4A (Homo sapiens, UniProt P27815)
Sequence (P27815 whole entry): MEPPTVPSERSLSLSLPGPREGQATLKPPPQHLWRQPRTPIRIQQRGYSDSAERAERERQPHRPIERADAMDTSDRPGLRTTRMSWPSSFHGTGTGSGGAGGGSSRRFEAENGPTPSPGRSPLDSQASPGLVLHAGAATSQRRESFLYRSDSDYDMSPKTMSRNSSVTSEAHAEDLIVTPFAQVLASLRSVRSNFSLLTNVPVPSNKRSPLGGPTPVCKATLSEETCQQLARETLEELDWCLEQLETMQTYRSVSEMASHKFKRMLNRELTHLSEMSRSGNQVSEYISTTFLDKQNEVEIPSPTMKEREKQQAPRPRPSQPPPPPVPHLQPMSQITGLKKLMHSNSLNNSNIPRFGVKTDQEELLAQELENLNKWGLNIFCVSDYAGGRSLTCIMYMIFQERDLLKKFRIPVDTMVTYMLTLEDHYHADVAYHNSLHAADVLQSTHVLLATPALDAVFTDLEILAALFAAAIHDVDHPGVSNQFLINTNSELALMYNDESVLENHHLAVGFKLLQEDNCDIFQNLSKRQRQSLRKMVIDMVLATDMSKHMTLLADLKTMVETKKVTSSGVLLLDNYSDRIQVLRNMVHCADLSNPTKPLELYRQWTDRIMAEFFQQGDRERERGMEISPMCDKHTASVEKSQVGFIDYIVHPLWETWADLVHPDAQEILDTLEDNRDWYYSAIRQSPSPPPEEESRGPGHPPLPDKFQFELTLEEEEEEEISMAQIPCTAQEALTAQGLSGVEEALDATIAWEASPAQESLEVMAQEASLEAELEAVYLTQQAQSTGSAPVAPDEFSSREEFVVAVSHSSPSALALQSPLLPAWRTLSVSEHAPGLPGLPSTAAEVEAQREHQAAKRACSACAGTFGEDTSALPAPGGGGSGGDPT
Test: Evaluated for its ability to inhibit PDE4A.
We begin with a simple list: items and their reported log10 of IC50.
Units before log transform: µM; reported quantity: IC50; transform: log10.

Please review the entries below; each comes with its answer.
CCCCc1nc(-c2cc(OCC3CC3)cc(OCC3CC3)c2)c2cc(OC)c(OCCO)cc2n1 | 0.11
COc1nc(-c2cc(OCC3CC3)cc(OCC3CC3)c2)c2cc(OC)c(OCCO)cc2n1 | -0.89
COc1cc2c(-c3cc(OCC4CC4)cc(OCC4CC4)c3)nc(-c3cc(OCC4CC4)cc(OCC4CC4)c3)nc2cc1OCCO | 1.15
COc1cc2nc(C)nc(-c3cc(OCC4CC4)cc(OCC4CC4)c3)c2cc1OC | -0.05

Next:
Prompt line: Tell me the measured log10 of IC50 of `COc1cc2c(-c3cc(OCC4CC4)cc(OCC4CC4)c3)nc(-c3cccs3)nc2cc1OCCO` , please.
Response line: 0.73
